# System: PPARa:RXRa (NR concentration 270 nM, RXRa partner concentration 90 nM)
# assay.comment: PBM binding z-score (relative to random genomic background probes); higher = stronger binding; sequences stand for … in GC…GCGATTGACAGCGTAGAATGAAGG
Provide the recorded PBM binding z-score for the entries that follow.
Number, no unit, nothing else.

# input Recall the recorded PBM binding z-score for `AGAATGAGGTTAGGATCAGGGAAACAGAATACAT` with PPARa:RXRa (NR concentration 270 nM, RXRa partner concentration 90 nM) and state it.
# output 2.19

# input Record `CCTTACGGGTCACACCAGGTTATAGCATCGGAGT` : what is its PBM binding z-score with PPARa:RXRa (NR concentration 270 nM, RXRa partner concentration 90 nM)?
# output 5.2

# input Form field - read-out: PBM binding z-score; system: PPARa:RXRa (NR concentration 270 nM, RXRa partner concentration 90 nM); submitted item: `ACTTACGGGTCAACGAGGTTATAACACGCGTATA`
# output 5.9

# input Form field: PBM binding z-score recorded for `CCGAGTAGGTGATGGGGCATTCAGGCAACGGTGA` with PPARa:RXRa (NR concentration 270 nM, RXRa partner concentration 90 nM) (enter value)
# output 1.72

# input Query for PPARa:RXRa (NR concentration 270 nM, RXRa partner concentration 90 nM): what PBM binding z-score does the record show for `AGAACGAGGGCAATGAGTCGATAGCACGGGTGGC` ?
# output 1.03

# input Observed PBM binding z-score on PPARa:RXRa (NR concentration 270 nM, RXRa partner concentration 90 nM) for `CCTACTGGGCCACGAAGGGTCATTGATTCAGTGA` , please.
# output 3.68

# input State its PBM binding z-score on PPARa:RXRa (NR concentration 270 nM, RXRa partner concentration 90 nM): `GCTAGTAGATCAAGGTTAAGAAAGACTAAGCTAA`
# output 1.46

# input Find PBM binding z-score (PPARa:RXRa (NR concentration 270 nM, RXRa partner concentration 90 nM)) for the entry `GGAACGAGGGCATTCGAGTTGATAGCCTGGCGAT`
# output 1.42

# input Give the reported PBM binding z-score for `TCGAGCAGGTTAGGGGCATTCAGAATGGCGTCGA` (system: PPARa:RXRa (NR concentration 270 nM, RXRa partner concentration 90 nM)).
# output 0.89

# input Under PPARa:RXRa (NR concentration 270 nM, RXRa partner concentration 90 nM): PBM binding z-score value of `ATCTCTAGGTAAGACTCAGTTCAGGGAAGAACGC` ?
# output 0.432

# input # returns recorded PBM binding z-score (system: PPARa:RXRa (NR concentration 270 nM, RXRa partner concentration 90 nM)) for `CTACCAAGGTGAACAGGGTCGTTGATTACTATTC`
# output 2.32

# input Observed PBM binding z-score on PPARa:RXRa (NR concentration 270 nM, RXRa partner concentration 90 nM) for `TAGCCCAGGTCAGATCGGGCCAGTATACGCTATA` , please.
# output 1.86
